- TEST_TARGET: T1, IL-12 p40 C177S variant (human, UniProt P29460 23-328)
- T1 sequence: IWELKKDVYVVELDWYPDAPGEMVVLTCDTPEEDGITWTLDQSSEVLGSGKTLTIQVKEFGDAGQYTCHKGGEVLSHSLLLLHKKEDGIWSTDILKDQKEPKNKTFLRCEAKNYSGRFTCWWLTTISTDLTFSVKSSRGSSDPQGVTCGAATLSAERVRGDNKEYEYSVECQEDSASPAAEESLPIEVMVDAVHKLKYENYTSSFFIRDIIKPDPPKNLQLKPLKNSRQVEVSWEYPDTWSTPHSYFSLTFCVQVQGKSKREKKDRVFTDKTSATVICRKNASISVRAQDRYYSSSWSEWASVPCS
- PROCEDURE_TEXT: BLI (Octet), p35 C74 variant against p40 C177S
# koff annotations
Numbers only; they are read as s⁻¹.

Guide cases for koff, answers given:
Q: Report koff for IL-12 p35 C74D variant (other) RNLPVATPDPGMFPCLHHSQNLLRAVSNMLQKARQTLEFYPCTSEEIDHEDITKDKTSTVEACLPLELTKNESDLNSRETSFITNGSCLASRKTSFMMALCLSSIYEDLKMYQVEFKTMNAKLLMDPKRQIFLDQNMLAVIDELMQALNFNSETVPQKSSLEEPDFYKTKIKLCILLHAFRIRAVTIDRVMSYLNAS please.
Result: 0.001

Q: Would you kindly share the measured koff for IL-12 p35 C74Y variant (other) RNLPVATPDPGMFPCLHHSQNLLRAVSNMLQKARQTLEFYPCTSEEIDHEDITKDKTSTVEACLPLELTKNESYLNSRETSFITNGSCLASRKTSFMMALCLSSIYEDLKMYQVEFKTMNAKLLMDPKRQIFLDQNMLAVIDELMQALNFNSETVPQKSSLEEPDFYKTKIKLCILLHAFRIRAVTIDRVMSYLNAS ?
Result: 0.000411

Q: Look up koff: IL-12 p35 C74W variant (other) RNLPVATPDPGMFPCLHHSQNLLRAVSNMLQKARQTLEFYPCTSEEIDHEDITKDKTSTVEACLPLELTKNESWLNSRETSFITNGSCLASRKTSFMMALCLSSIYEDLKMYQVEFKTMNAKLLMDPKRQIFLDQNMLAVIDELMQALNFNSETVPQKSSLEEPDFYKTKIKLCILLHAFRIRAVTIDRVMSYLNAS
Result: 0.000432

# ---- query binder ----
Q: Which koff is reported for this binder? IL-12 p35 C74K variant (other) RNLPVATPDPGMFPCLHHSQNLLRAVSNMLQKARQTLEFYPCTSEEIDHEDITKDKTSTVEACLPLELTKNESKLNSRETSFITNGSCLASRKTSFMMALCLSSIYEDLKMYQVEFKTMNAKLLMDPKRQIFLDQNMLAVIDELMQALNFNSETVPQKSSLEEPDFYKTKIKLCILLHAFRIRAVTIDRVMSYLNAS
Result: 0.000508

Sourced from patent US20220340678A1
